Property: self-splicing fitness (ln); scope: individual sequences
assay: self-splicing fitness, log relative to wild type (ln ratio); higher = more splicing; Tetrahymena group I intron in knt gene, E. coli kanamycin selection, DiMSum; sequences stand for … in CUCUCU…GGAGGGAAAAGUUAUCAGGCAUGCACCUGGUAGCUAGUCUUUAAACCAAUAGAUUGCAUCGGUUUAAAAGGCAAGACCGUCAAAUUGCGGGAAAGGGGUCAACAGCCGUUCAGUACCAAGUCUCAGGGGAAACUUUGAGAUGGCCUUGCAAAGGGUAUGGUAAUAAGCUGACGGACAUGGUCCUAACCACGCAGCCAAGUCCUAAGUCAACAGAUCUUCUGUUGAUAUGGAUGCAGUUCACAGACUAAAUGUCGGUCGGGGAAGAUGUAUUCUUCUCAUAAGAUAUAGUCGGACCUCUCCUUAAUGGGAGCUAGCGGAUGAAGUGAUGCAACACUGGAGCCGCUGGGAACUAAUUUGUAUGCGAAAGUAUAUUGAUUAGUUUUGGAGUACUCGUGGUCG; conditions: 30 °C;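 note: selection with 25 µg/mL kanamycin versus none on LB agar overnight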

Solved entries (count: 5):
CAGGAGCAAUAUUACGGUAU ... -3.42
CAGGAGCAAUAUUACGACUA ... 0.224
CACCAGCAAUAUUACGCAGC ... -3.44
AUAAAGCAAUAUUACGAAAC ... -2.47
GCUAAGCAAUAUUACGGCGC ... -1.55

For the next question, use this sequence.
Quick note, self-splicing fitness (ln) for UUGCAGCAAUAUUACGCCAA landed at -1.25
